# System: F. oxysporum
# Assay procedure: 96-well microtiter plate assay, fungal growth inhibition
# Type: cell-based, Fusarium oxysporum
# Experimental setup: F. oxysporum; 0.3 μM; 48 hrs
Criterion: Percent inhibition−Percent Stimulation±SEM meeting or surpassing -20%. Met: met. Not met: not met.

molecule="CO/N=C(/C(=O)OC)c1ccccc1COc1ccccc1C [BAS 490]" discrete_label="not met"
molecule="COc1cnc2c3c(nccc13)-c1ccccc1C2=O [4-methoxysampangine]" discrete_label=met
molecule="N#CC(CCc1ccc(Cl)cc1)(Cn1cncn1)c1ccccc1 (centres unmarked) [Fenbucanazole]" discrete_label=met
molecule="O=C1c2ccccc2-c2nccc3c2c1nc1ccccc13 [Benzo[4,5]sampangine, benzo[4,5]sampangine]" discrete_label="not met"

----------
# Percent inhibition−Percent Stimulation±SEM per record follows
# Test system: C. acutatum
# Assay procedure: 96-well microtiter plate assay, fungal growth inhibition
# Assay type: cell-based, Colletotrichum acutatum
# Experimental setup: C. acutatum; 30 μM; 48 hrs
Property name: Percent inhibition−Percent Stimulation±SEM (%)

molecule=O=C1c2ccccc2-c2nccc3c(Br)cnc1c23 recorded_measurement=−33.4
molecule="O=C1c2ccccc2-c2nccc3c2c1nc1ccccc13 [Benzo[4,5]sampangine, benzo[4,5]sampangine]" recorded_measurement=−57.0
molecule=CO/N=C(/C(=O)OC)c1ccccc1COc1ccccc1C recorded_measurement=−95.1
molecule=COc1cnc2c3c(nccc13)-c1ccccc1C2=O recorded_measurement=−51.3
molecule="N#CC(CCc1ccc(Cl)cc1)(Cn1cncn1)c1ccccc1 (centres unmarked)" recorded_measurement=−39.2

----------
# System: C. acutatum
# Assay procedure: 96-well microtiter plate assay, fungal growth inhibition
# Format: cell-based, Colletotrichum acutatum
# Experimental setup: Colletotrichum acutatum, 72 h, read-out: Percent inhibition−Percent Stimulation±SEM
Property name: inhibition at 30 µM (%)

compound=CC1(C(=O)Nc2ccc(O)c(Cl)c2Cl)CCCCC1 recorded_measurement=1.5
compound=CC(C)NC(=O)N1CC(=O)N(c2cc(Cl)cc(Cl)c2)C1=O recorded_measurement=-64.8
compound="O=C1C2CC=CCC2C(=O)N1SC(Cl)(Cl)Cl (centres unmarked)" recorded_measurement=99.6
compound=Cc1cc(C2CC2)nc(Nc2ccccc2)n1 recorded_measurement=97.9
compound=CCCCNC(=O)n1c(NC(=O)OC)nc2ccccc21 recorded_measurement=-15.2

----------
# Tested on: F. oxysporum
# Assay procedure: 96-well microtiter plate assay, fungal growth inhibition
# Format: cell-based, Fusarium oxysporum
# Experimental setup: F. oxysporum; 0.3 μM; 72 hrs
# Percent inhibition−Percent Stimulation±SEM per record follows
Property name: Percent inhibition−Percent Stimulation±SEM (%)

compound="O=C1c2ccccc2-c2nccc3c2c1nc1ccccc13 [Benzo[4,5]sampangine, benzo[4,5]sampangine]" recorded_measurement=−17.1
compound=COc1cnc2c3c(nccc13)-c1ccccc1C2=O recorded_measurement=2.9
compound="N#CC(CCc1ccc(Cl)cc1)(Cn1cncn1)c1ccccc1 (centres unmarked)" recorded_measurement=−10.4
compound=O=C1c2ccccc2-c2nccc3c(Br)cnc1c23 recorded_measurement=−2.8
compound=CO/N=C(/C(=O)OC)c1ccccc1COc1ccccc1C recorded_measurement=−30.3

----------
# System: B. cinerea
# Assay procedure: 96-well microtiter plate assay, fungal growth inhibition
# Assay type: cell-based, Botrytis cinerea
# Experimental setup: B. cinerea; 0.3 μM; 48 hrs
# Description: Pathogen production. […] Inoculum preparation. […] Conidia concentrations were determined photometrically, from a standard curve based on the percent of transmittance (% T) at 625 nm and suspensions were then adjusted with sterile distilled water to a concentration of 1.0×10^6 conidia/mL. Microtiter assay. […] Growth was then evaluated by measuring absorbance of each well at 620 nm using a microplate photometer (Packard Spectra Count, Packard Instrument Co., Downers Grove, Ill.). […]
# Percent inhibition−Percent Stimulation±SEM per record follows
Property name: Percent inhibition−Percent Stimulation±SEM (%)

molecule="N#CC(CCc1ccc(Cl)cc1)(Cn1cncn1)c1ccccc1 (centres unmarked)" target_of_assay="B. cinerea" recorded_measurement=−46.0
molecule=O=C1c2ccccc2-c2nccc3c(Br)cnc1c23 target_of_assay="B. cinerea" recorded_measurement=−41.1
molecule="O=C1c2ccccc2-c2nccc3c2c1nc1ccccc13 [Benzo[4,5]sampangine, benzo[4,5]sampangine]" target_of_assay="B. cinerea" recorded_measurement=−70.2
molecule=COc1cnc2c3c(nccc13)-c1ccccc1C2=O target_of_assay="B. cinerea" recorded_measurement=−23.0
molecule=CO/N=C(/C(=O)OC)c1ccccc1COc1ccccc1C target_of_assay="B. cinerea" recorded_measurement=−71.3
